Reported pIC50 is given for each of the following compounds.
# Study Target: ABL1 (T315I) (Homo sapiens, UniProt P00519, T315I)
# Protocol Notes: In vitro kinase assay with recombinant protein (33P-ATP), ABL1 (T315I)
# Condition Set: 120 min at room temperature, read-out: IC50 against kinase activity in vitro, ABL1 (T315I)
pIC50: −log10 of the molar value.

{"columns": ["Compound", "Rel", "pIC50"],
 "data": [
  ["O=C1Nc2ccc(Br)cc2C1=C1Nc2ccccc2C1=NOCCN1CCNCC1 [Compound 1289]", "=", 6.67],
  ["O=C1Nc2ccc(Br)cc2C1=C1Nc2ccccc2C1=NOCCN1CCCC1 [Compound 1281]", "=", 5.15],
  ["CCN(CC)CCON=C1C(=C2C(=O)Nc3ccc(Br)cc32)Nc2ccccc21 [Compound 1277]", "<", 5.00],
  ["CN(CCO/N=C1/C(=C2/C(=O)Nc3ccc(Br)cc32)Nc2ccccc21)CC(O)CO (stereo not drawn) [Compound 1278]", "=", 5.81],
  ["CN(CCO/N=C1/C(=C2/C(=O)Nc3ccc(Br)cc32)Nc2ccccc21)CC(O)CO (stereo not drawn) [Compound 1279]", "=", 5.26],
  ["CCN(CC)CCO/N=C1/C(=C2/C(=O)Nc3ccc(Br)cc32)Nc2ccccc21 [Compound 1276]", "=", 5.18]
]}

###

# Study Target: AuroraA (Homo sapiens)
# Sequence (O14965 whole entry): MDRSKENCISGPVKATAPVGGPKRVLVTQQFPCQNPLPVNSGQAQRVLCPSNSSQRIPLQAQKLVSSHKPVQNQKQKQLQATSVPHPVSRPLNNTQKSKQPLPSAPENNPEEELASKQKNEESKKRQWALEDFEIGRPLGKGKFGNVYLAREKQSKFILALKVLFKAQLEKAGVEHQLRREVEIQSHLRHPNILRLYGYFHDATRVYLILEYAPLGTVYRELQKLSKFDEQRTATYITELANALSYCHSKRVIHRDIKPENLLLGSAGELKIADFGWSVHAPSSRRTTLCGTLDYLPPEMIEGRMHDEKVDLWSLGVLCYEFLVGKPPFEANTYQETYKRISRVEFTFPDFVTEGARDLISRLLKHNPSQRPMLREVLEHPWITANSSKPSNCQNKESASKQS
# Protocol Notes: In vitro kinase assay with recombinant protein (33P-ATP), AuroraA
# Condition Set: 120 min at room temperature, read-out: IC50 against kinase activity in vitro, AuroraA
Readout Label: IC50 (nM)

{"columns": ["Compound", "Result"],
 "data": [
  ["CN(CCO/N=C1/C(=C2/C(=O)Nc3ccc(Br)cc32)Nc2ccccc21)CC(O)CO (stereo not drawn) [Compound 1279]", 301],
  ["CN(CCO/N=C1/C(=C2/C(=O)Nc3ccc(Br)cc32)Nc2ccccc21)CC(O)CO (stereo not drawn) [Compound 1278]", 122],
  ["CCN(CC)CCO/N=C1/C(=C2/C(=O)Nc3ccc(Br)cc32)Nc2ccccc21 [Compound 1276]", 954],
  ["O=C1Nc2ccc(Br)cc2C1=C1Nc2ccccc2C1=NOCCN1CCNCC1 [Compound 1289]", 143],
  ["CCN(CC)CCON=C1C(=C2C(=O)Nc3ccc(Br)cc32)Nc2ccccc21 [Compound 1277]", 3310],
  ["O=C1Nc2ccc(Br)cc2C1=C1Nc2ccccc2C1=NOCCN1CCCC1 [Compound 1281]", 2050]
]}

###

# Study Target: JAK2 (Homo sapiens)
# Sequence (O60674 whole entry): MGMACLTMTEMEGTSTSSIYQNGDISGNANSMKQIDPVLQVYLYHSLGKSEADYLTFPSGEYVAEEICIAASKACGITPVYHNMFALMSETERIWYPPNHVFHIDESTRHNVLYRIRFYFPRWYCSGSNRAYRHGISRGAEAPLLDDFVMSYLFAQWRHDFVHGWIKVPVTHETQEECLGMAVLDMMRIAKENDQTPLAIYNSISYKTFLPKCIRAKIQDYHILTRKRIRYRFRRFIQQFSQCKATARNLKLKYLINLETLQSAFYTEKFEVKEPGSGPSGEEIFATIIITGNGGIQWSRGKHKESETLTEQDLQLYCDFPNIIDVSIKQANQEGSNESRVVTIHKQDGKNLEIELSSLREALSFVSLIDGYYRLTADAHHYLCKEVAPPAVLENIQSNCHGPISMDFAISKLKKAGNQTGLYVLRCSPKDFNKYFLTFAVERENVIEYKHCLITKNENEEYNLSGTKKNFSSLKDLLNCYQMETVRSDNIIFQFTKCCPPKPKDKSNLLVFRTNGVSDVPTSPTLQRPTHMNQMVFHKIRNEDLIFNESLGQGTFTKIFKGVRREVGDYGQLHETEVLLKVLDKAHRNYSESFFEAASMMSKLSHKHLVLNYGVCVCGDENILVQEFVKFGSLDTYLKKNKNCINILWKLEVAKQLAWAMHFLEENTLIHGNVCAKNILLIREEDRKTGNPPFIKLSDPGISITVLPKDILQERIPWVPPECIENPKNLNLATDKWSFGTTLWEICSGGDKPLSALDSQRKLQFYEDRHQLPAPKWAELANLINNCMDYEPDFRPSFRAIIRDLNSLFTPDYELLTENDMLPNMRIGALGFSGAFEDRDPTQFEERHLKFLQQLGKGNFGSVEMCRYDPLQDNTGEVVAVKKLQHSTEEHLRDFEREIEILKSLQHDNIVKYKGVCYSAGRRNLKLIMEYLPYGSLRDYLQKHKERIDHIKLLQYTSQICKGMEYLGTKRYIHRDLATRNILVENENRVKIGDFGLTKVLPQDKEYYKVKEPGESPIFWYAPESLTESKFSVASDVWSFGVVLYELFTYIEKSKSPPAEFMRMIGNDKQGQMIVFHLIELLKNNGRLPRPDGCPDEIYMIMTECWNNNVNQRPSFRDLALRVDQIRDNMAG
# Protocol Notes: In vitro kinase assay with recombinant protein (33P-ATP), JAK2
# Type: biochemical
# Condition Set: 120 min at room temperature, read-out: IC50 against kinase activity in vitro, JAK2

{"columns": ["Compound", "Study Target", "IC50 / nM"],
 "data": [
  ["CN(CCO/N=C1/C(=C2/C(=O)Nc3ccc(Br)cc32)Nc2ccccc21)CC(O)CO (stereo not drawn) [Compound 1278]", "JAK2 (Homo sapiens)", 104],
  ["O=C1Nc2ccc(Br)cc2C1=C1Nc2ccccc2C1=NOCCN1CCNCC1", "JAK2 (Homo sapiens)", 47.6],
  ["O=C1Nc2ccc(Br)cc2C1=C1Nc2ccccc2C1=NOCCN1CCCC1", "JAK2 (Homo sapiens)", 264],
  ["CN(CCO/N=C1/C(=C2/C(=O)Nc3ccc(Br)cc32)Nc2ccccc21)CC(O)CO (stereo not drawn) [Compound 1279]", "JAK2 (Homo sapiens)", 410],
  ["CCN(CC)CCON=C1C(=C2C(=O)Nc3ccc(Br)cc32)Nc2ccccc21", "JAK2 (Homo sapiens)", 1250],
  ["CCN(CC)CCO/N=C1/C(=C2/C(=O)Nc3ccc(Br)cc32)Nc2ccccc21", "JAK2 (Homo sapiens)", 526]
]}

###

# Study Target: ABL1 (Homo sapiens)
# Protocol Notes: In vitro kinase assay with recombinant protein (33P-ATP), ABL1
# Condition Set: 120 min at room temperature, read-out: IC50 against kinase activity in vitro, ABL1
pIC50: −log10 of the molar value.
Reported pIC50 is given for each of the following compounds.

{"columns": ["Compound", "pIC50"],
 "data": [
  ["CCN(CC)CCO/N=C1/C(=C2/C(=O)Nc3ccc(Br)cc32)Nc2ccccc21 [Compound 1276]", 5.99],
  ["CCN(CC)CCON=C1C(=C2C(=O)Nc3ccc(Br)cc32)Nc2ccccc21 [Compound 1277]", 5.32],
  ["O=C1Nc2ccc(Br)cc2C1=C1Nc2ccccc2C1=NOCCN1CCNCC1 [Compound 1289]", 7.15],
  ["CN(CCO/N=C1/C(=C2/C(=O)Nc3ccc(Br)cc32)Nc2ccccc21)CC(O)CO (stereo not drawn) [Compound 1278]", 6.41],
  ["O=C1Nc2ccc(Br)cc2C1=C1Nc2ccccc2C1=NOCCN1CCCC1 [Compound 1281]", 5.60],
  ["CN(CCO/N=C1/C(=C2/C(=O)Nc3ccc(Br)cc32)Nc2ccccc21)CC(O)CO (stereo not drawn) [Compound 1279]", 5.84]
]}

###

Reported log10 IC50 is given for each of the following molecules.
# Study Target: UniProt P12931
# Sequence (P12931 whole entry): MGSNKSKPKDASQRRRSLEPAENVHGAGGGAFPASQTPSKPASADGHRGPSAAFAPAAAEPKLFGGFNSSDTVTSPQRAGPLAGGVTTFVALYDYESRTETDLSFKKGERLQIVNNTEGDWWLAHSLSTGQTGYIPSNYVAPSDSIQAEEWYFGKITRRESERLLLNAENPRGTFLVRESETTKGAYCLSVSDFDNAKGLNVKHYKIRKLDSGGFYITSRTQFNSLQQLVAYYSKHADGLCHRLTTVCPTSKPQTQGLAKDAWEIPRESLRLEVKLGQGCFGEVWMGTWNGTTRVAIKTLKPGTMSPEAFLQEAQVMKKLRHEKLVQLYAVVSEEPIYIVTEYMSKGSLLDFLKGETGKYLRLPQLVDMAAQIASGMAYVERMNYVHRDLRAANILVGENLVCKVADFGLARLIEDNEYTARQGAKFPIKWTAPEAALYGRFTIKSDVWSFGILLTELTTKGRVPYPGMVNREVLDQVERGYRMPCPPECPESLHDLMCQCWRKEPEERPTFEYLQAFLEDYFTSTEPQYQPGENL
# Protocol Notes: In vitro kinase assay with recombinant protein (33P-ATP), c-Src
# Assay type: biochemical
# Condition Set: 120 min at room temperature, read-out: IC50 against kinase activity in vitro, c-Src
Readout Label: log10 IC50 (log10 of the value in nM)

{"columns": ["Molecule", "Result"],
 "data": [
  ["O=C1Nc2ccc(Br)cc2C1=C1Nc2ccccc2C1=NOCCN1CCNCC1", 0.57],
  ["CN(CCO/N=C1/C(=C2/C(=O)Nc3ccc(Br)cc32)Nc2ccccc21)CC(O)CO (stereo not drawn) [Compound 1279]", 1.84],
  ["CN(CCO/N=C1/C(=C2/C(=O)Nc3ccc(Br)cc32)Nc2ccccc21)CC(O)CO (stereo not drawn) [Compound 1278]", 1.08],
  ["CCN(CC)CCON=C1C(=C2C(=O)Nc3ccc(Br)cc32)Nc2ccccc21", 1.98],
  ["O=C1Nc2ccc(Br)cc2C1=C1Nc2ccccc2C1=NOCCN1CCCC1", 1.29],
  ["CCN(CC)CCO/N=C1/C(=C2/C(=O)Nc3ccc(Br)cc32)Nc2ccccc21", 1.54]
]}
